Tested on: antibodies in sera from SARS patients (sera 1a, 1b, 2, 6, 37, 62, London, SARS-yellow, SARS-green)
Type: binding, human
Would you mind telling me the reported Binding of serum London to linear peptides of protein X2 of each entry?
Number only, please.

Assign Binding of serum London to linear peptides of protein X2 to the following record: VILRIGTQVLKTMSL 0.4

Indicate its recorded Binding of serum London to linear peptides of protein X2; the sequence in question is LIQQWIQFMMSRRRL 0.5

Quickly give me recorded Binding of serum London to linear peptides of protein X2 for LLQTLVLKMLHSSSL 0.4

Check the records and state Binding of serum London to linear peptides of protein X2 for PKFTTSLSLHKLLQT 0.4

Note down Binding of serum London to linear peptides of protein X2 recorded for SSSLTSLLKTHRMCK 0.6

Tell me Binding of serum London to linear peptides of protein X2 reported for KYTQSTALQELLIQQ 0.5

Output Binding of serum London to linear peptides of protein X2 of MAISPKFTTSLSLHK 0.5

Kindly indicate its recorded Binding of serum London to linear peptides of protein X2. Item: ITMTTVYHITVSQIQ 0.5
